system: Pseudomonas aeruginosa; assay: Antibacterial activity against Pseudomonas aeruginosa after 24 hr by broth dilution method; format: functional
# Lookup of reported MIC keyed by entry
Expressed in µg/mL, but write only the number.

>  <Molecular string>
NC(=O)N/N=C/c1c(-c2ccccc2)n(CC(=O)c2ccc(Cl)cc2)c2ccccc12

>  <Unit of measurement>
µg/mL

>  <MIC>
115

$$$$
>  <Molecular string>
C=CCn1c(-c2ccccc2)c(/C=N/NC(N)=O)c2ccccc21

>  <Unit of measurement>
µg/mL

>  <MIC>
125

$$$$
>  <Molecular string>
NC(=O)N/N=C/c1c(-c2ccccc2)n(CC(=O)c2ccccc2)c2ccccc12

>  <Unit of measurement>
µg/mL

>  <MIC>
100

$$$$
>  <Molecular string>
NC(=O)N/N=C/c1c(-c2ccccc2)n(CC(=O)c2ccc([N+](=O)[O-])cc2)c2ccccc12

>  <Unit of measurement>
µg/mL

>  <MIC>
75

$$$$
>  <Molecular string>
COc1ccc(C(=O)Cn2c(-c3ccccc3)c(/C=N/NC(N)=O)c3ccccc32)cc1

>  <Unit of measurement>
µg/mL

>  <MIC>
145

$$$$

In: Query: MIC; subject: CCCCn1c(-c2ccccc2)c(/C=N/NC(N)=O)c2ccccc21
Out: 120

In: Query: MIC; subject: NC(=O)N/N=C/c1c(-c2ccccc2)n(CC(=O)c2ccc(-c3ccccc3)cc2)c2ccccc12
Out: 105

In: Query: MIC; subject: NC(=O)N/N=C/c1c(-c2ccccc2)n(CC(=O)c2ccc(Br)cc2)c2ccccc12
Out: 135
